- Assayed system: UniProt:P17861
- Assay overview: XBP1 reporter suppression in cells – counter-screen, dose response (AID 504313);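 note: CHO cells carrying an XBP1 reporter stimulated with tunicamycin; potency is for inhibition of the tunicamycin-induced reporter signal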
- Condition summary: XBP1 reporter cell assay, percent of control
Active and inactive are the calls of the source. The rule behind the calls is not given here.
Your response should consist of one outcome taken from active, inactive

What did the test return for O=C(NC(c1ccccc1)c1c(O)ccc2ccccc12)c1ccccc1Cl (configuration not stated) ? inactive

What did the test return for CCOC(=O)CCS(=O)(=O)c1nc(-c2ccccc2)cc(C(F)(F)F)n1 ? inactive

What did the test return for Cc1ccc(-c2nn(-c3ccccc3)cc2/C=N/NC(=O)c2ccc(Br)o2)cc1 ? inactive

What did the test return for O=C(Nc1ccccc1)C1=C(c2ccccc2)S(=O)(=O)CCS1(=O)=O ? inactive

What did the test return for O=C(C1=C(c2ccccc2)C(=O)c2ccccc2C1=O)c1ccccc1 ? inactive

What did the test return for CCCCn1c(/N=C/c2c[nH]c3ccccc23)nc2ccccc21 ? inactive

What did the test return for Cc1nc(Nc2nc(CSc3nc4ccccc4[nH]3)cc(=O)[nH]2)nc2ccccc12 ? inactive

What did the test return for CC(C)(C)C(=O)NC(=S)NNC(=O)C(c1ccccc1)c1ccccc1 ? inactive

What did the test return for CCCc1cc(=O)[nH]c(Nc2ccc(N3CCCCC3)cc2)n1 ? inactive

What did the test return for CN(C)CCCn1c(SCC(=O)Nc2nc(-c3cccc(Br)c3)cs2)nc2ccccc2c1=O ? inactive

What did the test return for CCN1C=CC(=C2C(=O)c3ccccc3C2=O)C=C1 ? inactive

What did the test return for Fc1c(F)c(C(F)(F)F)c(F)c(F)c1N/N=C\c1cccs1 ? active

What did the test return for Oc1ccc(Cl)cc1-c1cc(-c2ccccc2)n[nH]1 ? inactive

What did the test return for COc1ccc(C(=O)NNC(=O)c2ccccn2)cc1 ? inactive

What did the test return for CC(/C=N/n1c(C2CCCCC2)n[nH]c1=S)=C\c1ccccc1 ? inactive

What did the test return for Cc1sc(NC(=O)c2cccc([N+](=O)[O-])c2)c(C(N)=O)c1-c1ccc(C(C)(C)C)cc1 ? active

What did the test return for CCOc1cc(/C=C2/C(=O)ON=C2C)ccc1OCc1ccc(F)cc1 ? inactive

What did the test return for Cc1ccc(NC(=O)NC(=O)CN2C(=O)NC3(CCCCCCC3)C2=O)c(C)c1 ? inactive

What did the test return for Cc1ccc(COc2ccc(Br)cc2/C=N/O)cc1 ? inactive

What did the test return for CCOc1ccc(N(CC(=O)Nc2cccc(Cl)c2)S(=O)(=O)c2c(C)noc2C)cc1 ? inactive

What did the test return for CC(C)(C)C1C/C(=C/c2ccco2)C(=O)/C(=C/c2ccco2)C1 (configuration not stated) ? inactive

What did the test return for COc1cc(/C=C2\COC/C(=C\c3cc(OC)c(OC)c(OC)c3)C2=O)cc(OC)c1OC ? active

* * *

- Assayed system: X-box-binding protein 1 (Homo sapiens)
- Assay overview: XBP1 reporter suppression in cells – counter-screen, dose response (AID 504313)
- Condition summary: XBP1 reporter cell assay, percent of control
Active and inactive are the calls of the source. How the calls were made is not given here.
Your response should consist of one outcome taken from active, inactive

What did the test return for CCOc1ccc(/C=C/C2=Cc3c(sc(NC(=O)CSc4n[nH]c(N)n4)c3C#N)C(C)(C)C2)cc1 ? inactive

What did the test return for Cc1ccc(/C=C2\SC(=S)N(CCCC(=O)Nc3ccccn3)C2=O)cc1 ? active

What did the test return for O=C(Nc1ccccc1)Nc1cc(OCC(F)(F)F)cc(OCC(F)(F)F)c1 ? active

What did the test return for CC1CCc2cc(F)ccc2N1C(=O)CSc1nnc2c(n1)[nH]c1ccc(F)cc12 (stereo not given) ? inactive

What did the test return for Cc1cccc(/C=C2/S/C(=N/N=C3\CC4CCC3(C)C4(C)C)NC2=O)c1 (stereo not given) ? inactive

What did the test return for Cc1ccn2cc(-c3cc4ccccc4oc3=O)nc2c1 ? inactive

What did the test return for CCOC(=O)C1=C(c2ccc(OC)cc2)C(=O)c2ccccc2C1=O ? inactive

What did the test return for C=C1C(=O)O[C@@H]2C[C@@H](C)[C@@H]3C=CC(=O)[C@@]3(C)[C@@H](O)[C@H]12 ? active

What did the test return for Cc1ccccc1CS(=O)(=O)c1nnc([C@H](CC(C)C)NC(=O)OC(C)(C)C)o1 ? inactive

What did the test return for COc1ccc(/C=C2/C(=O)ON=C2c2ccccc2)cc1OC ? inactive

What did the test return for COc1cc(OC)cc(-c2nc3ccccc3c(=O)n2OC(=O)c2ccc(Br)cc2)c1 ? inactive

What did the test return for O=C1C(C2=NC(c3ccccn3)C3C(=O)N(c4ccc(OC(F)(F)F)cc4)C(=O)C23)=C(O)c2ccccc21 (stereo not given) ? inactive

What did the test return for O=C(Nc1ccc(Oc2ccccc2)cc1)C1CCN(c2c3c(nc4ncnn24)CCC3)CC1 ? inactive

What did the test return for CCn1c(C)nc2cc(-c3nnc(-c4c(-c5ccccc5)noc4C)o3)ccc21 ? inactive

What did the test return for Cc1nc2ccccn2c1C(=O)N=Nc1c(O)n(CCC(C)C)c2ccccc12 ? inactive

What did the test return for COc1ccccc1-c1nnc(NC(=O)c2ccc(S(=O)(=O)N(C)Cc3ccccc3)cc2)o1 ? inactive

What did the test return for COC(=O)c1c(NC(=O)Nc2ccc(Cl)cc2)sc(C)c1C ? inactive

What did the test return for CC1=CCC[C@@H]2[C@@](C)(CC/C(C)=C/C(=O)O)[C@H](C)CC[C@@]12C ? inactive

What did the test return for CCCCCCn1c(N2CCC(C)CC2)nc2c1c(=O)[nH]c(=O)n2C ? inactive

What did the test return for O=[N+]([O-])c1ccc(/C=N/n2c(C3CCCCC3)n[nH]c2=S)cc1 ? inactive

* * *

- Assayed system: X-box-binding protein 1 (Homo sapiens)
- Assay overview: XBP1 reporter suppression in cells – counter-screen, dose response (AID 504313);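 note: CHO cells carrying an XBP1 reporter stimulated with tunicamycin; potency is for inhibition of the tunicamycin-induced reporter signal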
- Condition summary: XBP1 reporter cell assay, percent of control
Active and inactive are the calls of the source. The rule behind the calls is not given here.
Your response should consist of one outcome taken from 1 (active), -1 (inactive)

What did the test return for CCCCCCOC(=O)Nc1ccc(S(=O)(=O)Nc2cccc([N+](=O)[O-])c2)cc1 ? -1

What did the test return for Nc1cc(Cl)ccc1Oc1ccc(Cl)cc1 ? -1

What did the test return for FC(F)(F)c1cccc(NC(=S)NC(c2ccccc2)c2ccccc2)c1 ? -1

What did the test return for CC(C)(C)OC(=O)NCCc1nnc(S(=O)(=O)Cc2ccc(Cl)cc2Cl)o1 ? 1

What did the test return for O=S(=O)(Nc1cc(Sc2ncn[nH]2)c(O)c2ccccc12)c1ccccc1 ? -1

What did the test return for O=C1C(Nc2ccc(O)cc2)=C/C(=N/S(=O)(=O)c2cccs2)c2ccccc21 ? 1

What did the test return for O=C1C(=C2SCCCS2)CC/C1=C\c1ccc(F)cc1 ? 1

What did the test return for CCOC(=O)c1cc([N+](=O)[O-])c([N+](=O)[O-])cc1NC(C)=O ? -1

What did the test return for C=CCn1c(O)c(C(CC)=Nc2ccc(N(CC)CC)cc2)c(=O)[nH]c1=O ? -1

What did the test return for COc1ccc(Cc2nc3ccccc3n2CC(=O)N/N=C/c2ccc(C)cc2O)cc1OC ? -1

* * *

- Assayed system: X-box-binding protein 1 (Homo sapiens)
- Assay overview: XBP1 reporter suppression in cells – counter-screen, dose response (AID 504313);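 note: CHO cells carrying an XBP1 reporter stimulated with tunicamycin; potency is for inhibition of the tunicamycin-induced reporter signal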
- Condition summary: XBP1 reporter cell assay, percent of control
Activity calls are given as the source filed them. How the calls were made is not given here.
Your response should consist of one outcome taken from 1 = active, -1 = inactive

What did the test return for CC1C/C(=C/c2ccccn2)C(=O)/C(=C/c2ccccn2)C1 (stereo not given) ? 1

What did the test return for O=C1CC(c2cccc(Cl)c2)CC(O)=C1C=Nc1cccc(Cl)c1 (stereo not given) ? -1

What did the test return for CC(C)Cn1c(N)c(C(=O)COC(=O)CC23CC4CC(CC(C4)C2)C3)c(=O)n(C)c1=O ? -1

What did the test return for CC(=O)/C=C/n1c(=S)oc2ccccc21 ? -1

What did the test return for CN1CC(c2ccccc2)C2(SC(=S)N(Cc3ccco3)C2=O)C12C(=O)Nc1ccccc12 (stereo not given) ? -1

What did the test return for NC(=O)CC(NC(=O)Cc1cccc2ccccc12)c1ccc(NCc2cc(F)ccc2F)c([N+](=O)[O-])c1 (stereo not given) ? -1

What did the test return for CC(CNC(=S)Nc1cc(F)cc(F)c1)CSc1ccc(Cl)cc1 (stereo not given) ? -1

What did the test return for CC(=O)C(C(C)=O)c1c(Cl)c(O)c(O)c2c(C(=O)c3ccccc3)coc12 ? -1

What did the test return for O=C(O)c1ccc(N/N=C/c2ccc3nccnc3c2)cc1 ? 1

What did the test return for COc1ccc(-c2cc(C3CCN(Cc4cccc(C(F)(F)F)c4)CC3)[nH]n2)cc1 ? -1

* * *

- Assayed system: X-box-binding protein 1 (Homo sapiens)
- Assay overview: XBP1 reporter suppression in cells – counter-screen, dose response (AID 504313);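 note: CHO cells carrying an XBP1 reporter stimulated with tunicamycin; potency is for inhibition of the tunicamycin-induced reporter signal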
- Condition summary: XBP1 reporter cell assay, percent of control
The source made the active and inactive calls. No rule for the calls is given here.
Your response should consist of one outcome taken from T (active), F (inactive)

What did the test return for CCc1ccc(NP(=O)(Oc2ccccc2F)Oc2ccccc2F)cc1 ? F

What did the test return for CCCCN=c1scc(-c2ccc3c(c2)NC(=O)CO3)n1N=C1CCCC1 ? F

What did the test return for O=C1C(=O)c2ccc(-c3ccccc3)cc2-c2ccccc21 ? T

What did the test return for COc1ccccc1C(=O)NC(=Nc1nc2ccccc2o1)NC(=O)c1ccccc1OC ? F

What did the test return for COc1ccc(N2C(=O)CC(Sc3nnnn3-c3ccc(F)cc3)C2=O)cc1 (stereo unspecified) ? F

What did the test return for CC1(C)C[C@H]2C=C(C=O)[C@]3(C=O)C[C@]3(C)[C@H]2C1 ? T

What did the test return for O=C(CCl)Nc1cc(-c2ccccc2)nn1-c1ccccc1 ? F

What did the test return for COc1ccc2nc(Nc3nc(CSc4nc5ccccc5[nH]4)cc(=O)[nH]3)nc(C)c2c1 ? F

What did the test return for CC(C)(C)c1ccc(OCCNC(=S)Nc2ccccc2)cc1 ? F

What did the test return for O=C(Nc1ccccc1-c1nc2ccccc2[nH]1)c1sc2ccccc2c1Cl ? F

What did the test return for CCOc1cc(/C=N/NC(=O)Cc2ccc(C(F)(F)F)cc2[N+](=O)[O-])c(Br)cc1OC ? F

What did the test return for Cc1cc(Cl)ccc1OCC(=O)N[C@@H](Cc1ccccc1)c1nc2ccccc2[nH]1 ? F

What did the test return for COc1ccc(/C=C2\SC(=S)N(CCCC(=O)Nc3ccc(O)cc3)C2=O)cc1 ? T

What did the test return for Cc1nn(CCC#N)c2nc(-c3ccccc3)cc(C(F)(F)F)c12 ? F

What did the test return for CCCC(NCC(O)COc1ccc(-c2ccccc2)cc1)c1ccccc1 (stereo unspecified) ? F

What did the test return for O=C(OCn1ncc(Br)c(Br)c1=O)c1c(F)cccc1F ? T

What did the test return for O=C(NNc1ccccc1Br)C(O)(c1cccc(C(F)(F)F)c1)c1cccc(C(F)(F)F)c1 ? F

What did the test return for Cc1ccc(/C=N/N2C(=S)SC(C)(C)C2N(O)C(=O)Nc2ccc([N+](=O)[O-])cc2)cc1 (stereo unspecified) ? T

What did the test return for COC(=O)/C=C\C(=O)Nc1cccc([N+](=O)[O-])c1 ? F

What did the test return for Cc1ccc(Cn2c(SCC(=O)Nc3cc(C)on3)nc3ccccc3c2=O)cc1 ? F

What did the test return for O=C1C(Cl)=C(Nc2ccccc2)C(=O)c2ccccc21 ? F
